- TARGET OR SYSTEM: Tubulin (Sus scrofa, UniProt P02554+P02550)
- ASSAY NAME: Inhibition of pig brain tubulin polymerization by spectrophotometric method
- Type: tissue-based
QUANTITY NAME: IC50 (µM)
// return numeric value only (unit: µM, not printed)

{"columns": ["SMILES REPRESENTATION", "UNIT NAME", "IC50"],
 "data": [
  ["CNS(=O)(=O)Oc1cc(/C=C\\c2cc(OC)c(OC)c(OC)c2)ccc1OC", "µM", 1.8],
  ["COc1cc(/C=C\\c2ccc(OC(F)F)c(OS(N)(=O)=O)c2)cc(OC)c1OC", "µM", 72.6],
  ["CCOc1ccc(/C=C\\c2cc(OC)c(OC)c(OC)c2)cc1OS(N)(=O)=O", "µM", 3.1]
]}

Please examine the following record next.
The measured IC50 associated with COc1ccc(/C=C\c2cc(OC)c(OC)c(OC)c2)cc1NS(N)(=O)=O reads 86.2

----------
- System: MCF7
- ASSAY NAME: Antiproliferative activity against human MCF7 cells assessed as reduction in cell viability after 24 hrs by CCK-8 assay
- Type: functional, cell-based
- DETAILS: MCF7, 24 h
QUANTITY NAME: IC50 (µM)
// return numeric value only (unit: µM, not printed)

{"columns": ["SMILES REPRESENTATION", "IC50, µM"],
 "data": [
  ["CNS(=O)(=O)Oc1cc(/C=C\\c2cc(OC)c(OC)c(OC)c2)ccc1OC", 0.53]
]}

Field IC50 (system: MCF7) for entry CCOc1ccc(/C=C\c2cc(OC)c(OC)c(OC)c2)cc1OS(N)(=O)=O = 0.3

Field IC50 (system: MCF7) for entry CCOc1ccc(/C=C/c2cc(OC)c(OC)c(OC)c2)cc1OS(N)(=O)=O = 13.7

Field IC50 (system: MCF7) for entry COc1ccc(CCc2cc(OC)c(OC)c(OC)c2)cc1OS(N)(=O)=O = 5.91

----------
- Tested on: MCF7
- ASSAY NAME: Antiproliferative activity against human MCF7 cells assessed as reduction in cell viability after 24 hrs by CCK-8 assay
- Assay type: functional, cell-based
- DETAILS: MCF7, 24 h
QUANTITY NAME: pIC50
Please keep in mind that pIC50 is minus log10 of the molar concentration; only the number is needed.

Recorded pIC50, per entry:
{"columns": ["SMILES REPRESENTATION", "OBSERVED MEASUREMENT"],
 "data": [
  ["COc1cc(/C=C/c2cccc(OS(N)(=O)=O)c2)cc(OC)c1OC", 4.56],
  ["CCOc1ccc(CCc2cc(OC)c(OC)c(OC)c2)cc1OS(N)(=O)=O", 4.83],
  ["COc1ccc(/C=C\\c2cc(OC)c(OC)c(OC)c2)cc1OS(=O)(=O)N(C)C", 4.96],
  ["COc1cc(CCc2ccc(OC(F)F)c(OS(N)(=O)=O)c2)cc(OC)c1OC", 4.28],
  ["COc1cc(/C=C\\c2ccc(OC(F)F)c(OS(N)(=O)=O)c2)cc(OC)c1OC", 6.54]
]}

Please examine the following record next.
Field pIC50 (system: MCF7) for entry COc1ccc(/C=C\c2cc(OC)c(OC)c(OC)c2)cc1NS(N)(=O)=O = 4.95
